Listed here: items and their measured koff.
assayed_target: T1, Human IL13Rα2 (human, UniProt Q14627 27-343, limits assumed)
T1 construct: also called human recombinant IL13Rα2; Human IL13Ra2
T1 sequence (looked up): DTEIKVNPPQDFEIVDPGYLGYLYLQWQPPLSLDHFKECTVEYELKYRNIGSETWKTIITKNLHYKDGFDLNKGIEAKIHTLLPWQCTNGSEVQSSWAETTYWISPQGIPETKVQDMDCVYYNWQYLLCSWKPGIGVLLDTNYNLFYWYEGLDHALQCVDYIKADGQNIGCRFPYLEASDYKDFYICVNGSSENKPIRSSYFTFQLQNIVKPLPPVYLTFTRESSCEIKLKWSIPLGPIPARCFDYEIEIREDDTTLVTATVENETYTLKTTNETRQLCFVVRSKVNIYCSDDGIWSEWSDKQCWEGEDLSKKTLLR
assay_procedure: SPR Biacore 8K affinity ranking, antibody supernatant Fc-captured, 100 nM IL13Rα2 analyte
Numeric only. Scale: s⁻¹

# annotated cases, reported koff shown
Humanized antibody VH4 + VL3 (antibody, human IgG1, kappa, V domains shown) VH: QVQLVQSGAEVKKPGASVKVSCKASGYTFSNYLMNWVRQATGQGLEWMGRIDPYDGDIDYNQNFKDRVTITRNTSISTAYMELSSLRSEDTAVYYCARGYGTAYGVDYWGQGTLVTVSS VL: EIVLTQSPATLSLSPGERATLSCRASESVDNYGISFMNWYQQKPGQAPRLLIYAASRQGSGIPARFSGSGSGTDFTLTISSLEPEDFAVYYCQQSKEVPWTFGGGTKLEIKR
0.000675
Humanized antibody VH3 + VL4 (antibody, human IgG1, kappa, V domains shown) VH: QVQLVQSGAEVKKPGASVKVSCKASGYTFSNYLMNWVRQAPGQGLEWMGRIDPYDGDIDYNQNFKDRVTMTRDTSTSTVYMELSSLRSEDTAVYYCARGYGTAYGVDYWGQGTLVTVSS VL: EIVMTQSPATLSVSPGERATLSCRASESVDNYGISFMNWYQQKPGQAPRLLIYAASRQGSGIPARFSGSGSGTEFTLTISSLQSEDFAVYYCQQSKEVPWTFGGGTKLEIKR
0.000615

Now consider a different binder.
// koff value for Humanized antibody VH4 + VL1 (antibody, human IgG1, kappa, V domains shown) VH: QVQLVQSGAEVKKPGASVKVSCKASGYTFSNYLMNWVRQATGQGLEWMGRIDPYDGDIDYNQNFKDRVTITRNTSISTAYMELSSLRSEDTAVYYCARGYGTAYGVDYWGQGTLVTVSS VL: DIVMTQSPDSLAVSLGERATINCRASESVDNYGISFMNWYQQKPGQPPKLLIYAASRQGSGVPDRFSGSGSGTDFTLTISSLQAEDVAVYYCQQSKEVPWTFGGGTKLEIKR : 0.000424
